Recorded log10 IC50 for the following compounds
System: Trypanosoma brucei brucei
Experiment: WHO-TDR: Human African Trypanosomiasis (HAT)
Assay type: functional, organism-based
Conditions: Squib-427
Plainly stated, the numbers are log10 of IC50 given in µg/mL.

compound: COc1cccc(C(=O)Nc2ccc(C)cc2C(=O)c2ccccc2)c1OC
quantity: log10 IC50
observed result: 0.86

Q: In one line, give reported log10 IC50 of the entry CCN(C1CCCCC1)S(=O)(=O)c1ccc(C(=O)Nc2nc(-c3ccccn3)cs2)cc1 .
Result: 1.07

Q: In one line, give reported log10 IC50 of the entry CCCCc1ccc(NC(=O)CSc2cn(CC)c3ccccc23)cc1 .
Result: 0.55

Q: In one line, give reported log10 IC50 of the entry CN(C)C(CNS(=O)(=O)c1cc(Cl)ccc1Cl)c1ccsc1 (configuration not stated) .
Result: 0.58
